The reported measurements were obtained from PubChem BioAssay AID1381.

Experiment: inhibitors of GR-EGFP nuclear translocation, primary screen, dynein cargo transport inhibitor project, imaging, high-content, 3617.4 mouse cells (AID 1381)
Conditions: at 20 µM, stimulated with dexamethasone, 1 µM
About 1,000 (0.45%) of roughly 220,000 compounds were called active.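 The calls were made as follows: active = plate z-score of nuclear minus cytoplasmic receptor signal below a set negative limit, without overly bright fluorescence or cell loss (cut at about -3.5 in these data, passing the limit was not always enough); inactive = the rest, inconclusive results apart.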 The full list was thinned out, with actives kept by preference.
Your response should consist of one outcome taken from 1.0 = active, 0.0 = inactive

Would you please look over these solved cases?
Compound	Discrete label
COc1ccc(CS(=O)/C(Cl)=C(/Cl)C(=O)Nc2ccc(OC)nc2)cc1 (stereo not drawn)	1.0
Cc1nn(C)c(Oc2ccccc2)c1[N+](=O)[O-]	0.0
Cc1c(C(=O)Nc2ccccc2)sc2nc3n(c(=O)c12)CCCCC3	0.0
COC(=O)[C@@H]1CC[C@H](C)[C@@H](c2ccc(C)cc2)N1C(=O)c1ccc(/C=N/O[C@H](C)c2cn([C@@H]3COC[C@H]3O)nn2)cc1	0.0
COc1cccc(C(=O)Oc2cc(C)[nH]c(=O)c2[N+](=O)[O-])c1	0.0

Identify the outcome logged in this assay for the compound shown: COc1ccc(NC(=O)/C(Cl)=C(/Cl)S(=O)Cc2ccc(C)cc2)cn1 (stereo not drawn)
0.0

Identify the outcome logged in this assay for the compound shown: Cc1cccc(OP(=O)(Nc2c(C)n(C)n(-c3ccccc3)c2=O)Oc2cccc(C)c2)c1
0.0

Identify the outcome logged in this assay for the compound shown: COC(=O)/C=C\C(=O)Nc1cccc([N+](=O)[O-])c1
1.0

====

Experiment: inhibitors of GR-EGFP nuclear translocation, primary screen, dynein cargo transport inhibitor project, imaging, high-content, 3617.4 mouse cells (AID 1381)
Details: measured here: nuclear GR-EGFP intensity, at 20 µM, stronger effect = lower value, stimulated with dexamethasone, 1 µM
Screen size: about 220,000 compounds; about 1,000 (0.45%) were called active. This excerpt belongs to a sample that is enriched for actives.
Value type: z-score
One number for each entry.

Previously resolved entries follow.
Compound	z-score
Cn1c(=O)c([N+](=O)[O-])c(Oc2ccccc2)c2ccccc21	-2.76
O=C(NCc1cccnc1)c1cccc(-c2cc3ccccc3oc2=O)c1	-0.235
COCC1CCCN(Cc2nc(-c3ccc4c(c3)OCO4)no2)C1 (configuration not stated)	0.224
CN(CCc1ccccn1)C(=O)CCC1CCCN(Cc2ccccc2OC(F)F)C1 (configuration not stated)	0.247
CS(=O)(=O)c1ccc(Cl)c(NC(=O)Nc2ccccc2)c1	0.728

Hi team, please reply with z-score for each item in this list.
1. O=C(Nc1cccc([N+](=O)[O-])c1)Nc1ccc(Cl)cn1
2. CC(NC(=S)Nc1ccccc1)C1COc2ccccc2O1 (configuration not stated)
3. Nc1ccccc1SC(C[N+](=O)[O-])c1ccccc1 (configuration not stated)
4. CCCSC(=S)NC1CCS(=O)(=O)C1 (configuration not stated)

1: 0.778; 2: 0.355; 3: -1.84; 4: -0.34

Hi team, please reply with z-score for each item in this list.
1. Cc1cc(NC(=O)Nc2ccc(Cl)cc2)n(-c2ccccc2)n1
2. Cn1cnnc1SCC(=O)NNC(=O)COc1ccc(Br)cc1
3. COc1ccc(NC(=O)CN(Cc2ccccc2)S(C)(=O)=O)cc1OC
4. COc1ccc(-c2cc(C(F)(F)F)nc(SCC(=O)Nc3ccc4c(c3)OCO4)n2)cc1OC
5. Nc1ncnc(Nc2cccc(Cl)c2Cl)n1

1. 0.639
2. -0.126
3. 0.254
4. -0.551
5. -1.2
